The values you see were collected from PubChem BioAssay AID668.

Molecular target: M-phase inducer phosphatase 2 (Homo sapiens)
Assay: Cdc25B phosphatase inhibitors with catalase present, dose response, biochemical, probe assessment (AID 668)
Details: recombinant Cdc25B catalytic domain, phosphatase activity
pIC50: −log10 of the molar value.
Reported endpoint: pIC50

A = c1ccc(CSc2nnc(-c3ccco3)c(-c3ccco3)n2)cc1
B = COc1cccc2c(C)c(C(=O)O)[nH]c12
For the two items A and B , which reports the higher pIC50 value? Write down the label of the entry you select.
B
